Record form. Attribute: IC50. Fill in for each entry.
target: CaV2.2 (Homo sapiens, UniProt Q00975); construct: expressed in transfected cells; host or cells: HEK293; assay: VIPR optical membrane potential assay with electrical stimulation; type: cell-based; details: Table 3, biological assay data; read-out: IC50
Sequence (Q00975 whole entry): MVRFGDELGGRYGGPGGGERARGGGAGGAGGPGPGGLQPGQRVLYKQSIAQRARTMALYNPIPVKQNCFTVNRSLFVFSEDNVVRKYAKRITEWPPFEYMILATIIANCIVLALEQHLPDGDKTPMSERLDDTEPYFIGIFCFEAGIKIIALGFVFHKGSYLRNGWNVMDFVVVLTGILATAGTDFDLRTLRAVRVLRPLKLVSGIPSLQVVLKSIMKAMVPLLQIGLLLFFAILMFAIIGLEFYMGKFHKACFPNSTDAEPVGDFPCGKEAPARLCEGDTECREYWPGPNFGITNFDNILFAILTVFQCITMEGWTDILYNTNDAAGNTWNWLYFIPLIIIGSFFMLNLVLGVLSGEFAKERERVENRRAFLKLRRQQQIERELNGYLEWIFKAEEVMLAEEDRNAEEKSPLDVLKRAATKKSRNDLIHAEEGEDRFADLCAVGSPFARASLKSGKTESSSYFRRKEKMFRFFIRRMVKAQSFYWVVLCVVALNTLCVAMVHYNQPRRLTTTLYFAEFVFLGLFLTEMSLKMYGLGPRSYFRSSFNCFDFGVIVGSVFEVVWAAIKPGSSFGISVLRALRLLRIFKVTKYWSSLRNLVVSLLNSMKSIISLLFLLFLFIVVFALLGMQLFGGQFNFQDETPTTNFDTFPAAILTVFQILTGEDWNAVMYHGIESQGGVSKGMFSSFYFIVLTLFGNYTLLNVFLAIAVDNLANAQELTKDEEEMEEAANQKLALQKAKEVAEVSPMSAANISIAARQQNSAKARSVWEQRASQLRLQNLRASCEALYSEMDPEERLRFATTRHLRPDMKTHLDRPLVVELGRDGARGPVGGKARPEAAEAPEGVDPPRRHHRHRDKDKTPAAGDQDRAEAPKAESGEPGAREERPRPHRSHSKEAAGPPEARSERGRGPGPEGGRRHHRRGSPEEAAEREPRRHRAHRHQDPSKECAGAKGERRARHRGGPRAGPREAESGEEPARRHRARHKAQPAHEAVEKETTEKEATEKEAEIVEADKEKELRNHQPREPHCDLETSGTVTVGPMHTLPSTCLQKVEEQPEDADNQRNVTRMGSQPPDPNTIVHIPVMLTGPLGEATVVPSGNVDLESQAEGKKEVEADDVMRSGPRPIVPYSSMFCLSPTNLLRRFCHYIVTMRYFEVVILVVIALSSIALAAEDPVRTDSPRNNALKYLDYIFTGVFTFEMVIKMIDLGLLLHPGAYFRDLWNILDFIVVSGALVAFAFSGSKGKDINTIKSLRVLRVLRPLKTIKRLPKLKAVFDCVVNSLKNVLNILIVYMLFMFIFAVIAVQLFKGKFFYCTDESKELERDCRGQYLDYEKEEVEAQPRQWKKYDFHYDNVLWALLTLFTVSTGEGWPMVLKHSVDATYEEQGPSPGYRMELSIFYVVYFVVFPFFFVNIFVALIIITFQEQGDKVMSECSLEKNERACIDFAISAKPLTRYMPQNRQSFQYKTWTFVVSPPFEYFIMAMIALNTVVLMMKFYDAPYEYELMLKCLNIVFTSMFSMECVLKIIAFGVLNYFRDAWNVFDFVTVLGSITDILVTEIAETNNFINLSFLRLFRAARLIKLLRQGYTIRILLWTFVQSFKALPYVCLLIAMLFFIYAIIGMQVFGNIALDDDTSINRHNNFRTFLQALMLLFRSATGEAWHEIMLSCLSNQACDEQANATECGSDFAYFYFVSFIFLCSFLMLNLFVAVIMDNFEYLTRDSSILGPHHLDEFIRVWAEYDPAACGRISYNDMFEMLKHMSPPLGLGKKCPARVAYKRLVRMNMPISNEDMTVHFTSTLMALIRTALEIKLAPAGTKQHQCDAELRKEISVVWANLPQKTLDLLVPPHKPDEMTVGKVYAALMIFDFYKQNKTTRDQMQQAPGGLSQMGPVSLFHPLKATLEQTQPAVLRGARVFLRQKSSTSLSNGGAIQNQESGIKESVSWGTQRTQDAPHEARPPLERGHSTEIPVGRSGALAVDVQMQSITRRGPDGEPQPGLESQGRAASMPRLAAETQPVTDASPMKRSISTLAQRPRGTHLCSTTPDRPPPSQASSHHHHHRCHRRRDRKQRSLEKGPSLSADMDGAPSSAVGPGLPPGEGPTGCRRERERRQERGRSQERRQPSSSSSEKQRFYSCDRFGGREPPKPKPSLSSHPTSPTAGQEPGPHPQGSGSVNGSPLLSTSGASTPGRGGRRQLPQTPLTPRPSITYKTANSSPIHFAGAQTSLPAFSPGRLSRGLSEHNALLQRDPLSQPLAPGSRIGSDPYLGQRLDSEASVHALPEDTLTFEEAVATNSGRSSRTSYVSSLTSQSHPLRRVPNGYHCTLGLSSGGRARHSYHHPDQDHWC
Sequence (P54284 whole entry partner): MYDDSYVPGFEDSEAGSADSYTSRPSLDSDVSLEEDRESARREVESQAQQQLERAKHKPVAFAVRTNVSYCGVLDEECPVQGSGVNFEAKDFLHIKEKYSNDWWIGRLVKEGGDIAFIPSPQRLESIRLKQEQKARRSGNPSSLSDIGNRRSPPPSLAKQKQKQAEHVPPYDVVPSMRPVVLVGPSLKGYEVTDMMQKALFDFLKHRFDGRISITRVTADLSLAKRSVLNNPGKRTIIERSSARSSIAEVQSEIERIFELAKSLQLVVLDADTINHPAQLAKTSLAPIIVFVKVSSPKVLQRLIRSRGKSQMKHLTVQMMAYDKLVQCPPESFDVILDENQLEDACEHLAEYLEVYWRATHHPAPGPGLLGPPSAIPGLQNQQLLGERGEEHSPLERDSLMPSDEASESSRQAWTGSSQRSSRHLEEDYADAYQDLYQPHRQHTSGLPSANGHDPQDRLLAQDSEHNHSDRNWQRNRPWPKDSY
Sequence (P54289 25-946 partner limits assumed): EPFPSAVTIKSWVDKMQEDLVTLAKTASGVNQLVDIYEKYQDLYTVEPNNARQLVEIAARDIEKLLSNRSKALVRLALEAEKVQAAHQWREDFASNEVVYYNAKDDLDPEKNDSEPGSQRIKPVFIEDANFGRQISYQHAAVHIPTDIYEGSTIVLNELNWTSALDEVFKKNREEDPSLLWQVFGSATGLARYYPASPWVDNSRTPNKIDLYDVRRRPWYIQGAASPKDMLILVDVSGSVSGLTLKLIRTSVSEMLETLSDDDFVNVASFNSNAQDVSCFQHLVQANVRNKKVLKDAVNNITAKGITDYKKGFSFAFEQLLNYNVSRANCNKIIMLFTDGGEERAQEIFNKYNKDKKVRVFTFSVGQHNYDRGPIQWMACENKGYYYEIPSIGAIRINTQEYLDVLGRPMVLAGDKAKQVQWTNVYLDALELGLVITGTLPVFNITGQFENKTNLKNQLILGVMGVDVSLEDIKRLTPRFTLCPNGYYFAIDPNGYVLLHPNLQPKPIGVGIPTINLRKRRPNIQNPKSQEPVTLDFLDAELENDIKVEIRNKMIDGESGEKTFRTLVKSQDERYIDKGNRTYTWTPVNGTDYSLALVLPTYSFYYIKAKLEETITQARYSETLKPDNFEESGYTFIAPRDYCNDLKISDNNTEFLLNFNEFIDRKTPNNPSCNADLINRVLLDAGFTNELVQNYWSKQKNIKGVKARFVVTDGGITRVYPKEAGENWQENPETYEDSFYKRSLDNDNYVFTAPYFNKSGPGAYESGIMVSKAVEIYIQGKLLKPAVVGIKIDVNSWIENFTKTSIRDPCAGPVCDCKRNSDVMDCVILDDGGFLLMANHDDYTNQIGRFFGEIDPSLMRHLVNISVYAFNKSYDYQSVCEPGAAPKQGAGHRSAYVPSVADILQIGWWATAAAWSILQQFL
Sequence (P54289 947-1103 partner limits assumed): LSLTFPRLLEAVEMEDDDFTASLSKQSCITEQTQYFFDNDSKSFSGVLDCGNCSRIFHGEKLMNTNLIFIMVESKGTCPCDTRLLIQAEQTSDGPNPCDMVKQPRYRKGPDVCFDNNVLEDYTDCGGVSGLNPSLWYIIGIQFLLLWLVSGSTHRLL

# count of solved cases: 10
compound="Cc1c(C(=O)NCc2ccccn2)oc2ccc(S(=O)(=O)N3CC(C)CC(C)C3)cc12 (stereo not shown)" tgt="CaV2.2 (Homo sapiens, UniProt Q00975)" result="< 20 µM"
compound="Cc1c(C(=O)N2CCC(C)CC2)oc2ccc(S(=O)(=O)N3CC(C)CC(C)C3)cc12 (stereo not shown)" tgt="CaV2.2 (Homo sapiens, UniProt Q00975)" result="< 5 µM"
compound="CC1CC(C)CN(S(=O)(=O)c2ccc3[nH]c(C(=O)NCCC4CCOCC4)cc3c2)C1 (stereo not shown)" tgt="CaV2.2 (Homo sapiens, UniProt Q00975)" result="< 5 µM"
compound="CCOC(=O)N1CCN(C(=O)c2oc3ccc(S(=O)(=O)N4CCCC(C)C4)cc3c2C)CC1 (stereo not shown)" tgt="CaV2.2 (Homo sapiens, UniProt Q00975)" result="< 5 µM"
compound=CCOC(=O)N1CCN(C(=O)c2oc3ccc(S(=O)(=O)N4CCC(C)CC4)cc3c2C)CC1 tgt="CaV2.2 (Homo sapiens, UniProt Q00975)" result="< 5 µM"
compound="CC1CCCN(C(=O)c2cc3cc(S(=O)(=O)N4CC(C)CC(C)C4)ccc3o2)C1 (stereo not shown)" tgt="CaV2.2 (Homo sapiens, UniProt Q00975)" result="< 5 µM"
compound="Cc1c(C(=O)NCC2CCCO2)oc2ccc(S(=O)(=O)N3CCOCC3)cc12 (stereo not shown)" tgt="CaV2.2 (Homo sapiens, UniProt Q00975)" result="< 20 µM"
compound=Cc1c(C(=O)NC2CC2)oc2ccc(S(=O)(=O)Nc3ccccc3)cc12 tgt="CaV2.2 (Homo sapiens, UniProt Q00975)" result="5 to 20 µM"
compound=Cc1ccc(NS(=O)(=O)c2ccc3oc(C(=O)NC4CC4)c(C)c3c2)cc1 tgt="CaV2.2 (Homo sapiens, UniProt Q00975)" result="5 to 20 µM"
compound="Cc1c(C(=O)NC2CCCC2)oc2ccc(S(=O)(=O)N3CCCC(C)C3)cc12 (stereo not shown)" tgt="CaV2.2 (Homo sapiens, UniProt Q00975)" result="< 5 µM"

Report IC50 for each item below.
1. CC1CCN(S(=O)(=O)c2ccc3[nH]c(CN4CCCCC4)cc3c2)CC1
2. CC1CC(C)CN(S(=O)(=O)c2ccc3oc(C(=O)NCCc4ccccc4)cc3c2)C1 (stereo not shown)
3. Cc1c(C(=O)NCc2ccccc2)oc2ccc(S(=O)(=O)N3CCC(C)CC3)cc12
4. Cc1c(C(=O)NCc2ccccc2)oc2ccc(S(=O)(=O)N3CCCC(C)C3)cc12 (stereo not shown)
5. Cc1c(C(=O)NCCCN2CCCC2)oc2ccc(S(=O)(=O)N3CC(C)CC(C)C3)cc12 (stereo not shown)
6. CC1CCN(S(=O)(=O)c2ccc3[nH]c(C(=O)N4CCCCC4C)cc3c2)CC1 (stereo not shown)
7. CC1CCN(S(=O)(=O)c2ccc3oc(C(=O)NCCC4CCOCC4)cc3c2)CC1
8. Cc1c(C(=O)NC(C)C)oc2ccc(S(=O)(=O)N3CCCC(F)(F)C3)cc12

Key:
1. < 5 µM
2. < 5 µM
3. 5 to 20 µM
4. 5 to 20 µM
5. < 5 µM
6. < 5 µM
7. < 5 µM
8. < 20 µM
